- tgt: T1, RBFOX1 RRM (Homo sapiens, UniProt Q9NWB1 109-208)
- T1 sequence: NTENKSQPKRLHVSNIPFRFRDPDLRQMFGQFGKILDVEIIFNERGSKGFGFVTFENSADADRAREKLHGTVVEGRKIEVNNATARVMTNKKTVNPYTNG
- protocol: EMSA; HiTS-Eq, 1 nM pool, 10 min; buffer printed only for the single-RNA assays: 10 mM Tris pH 7.5, 150 mM NaCl, 3.4 mM EDTA, 0.001% NP-40, 30 C
- condition: tags: His6 N-terminal (pET28a); label: 5' 32P
Whole data set: some 16,000 sequences, median “ka relative to ugcaugu” near 0.0091, cut for the highest 2% near 0.032. The full list was thinned out, with the highest values kept by preference.
reported-metric: binding signal

Task: Look at this binder and give its reported binding signal. UUGUUGG (DNA:RNA) RNA: GGGAGACCGGAAUUCAGAUUGUCCUUGUUGGUUAAAUCCCGUCGUAGCCACCA DNA 1: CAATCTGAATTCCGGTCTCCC DNA 2: TGGTGGCTACGACGGGATT
Result: 0.0248 KA relative to UGCAUGU

Task: Repeat with GGCGGCC (DNA:RNA) RNA: GGGAGACCGGAAUUCAGAUUGUCCGGCGGCCUUAAAUCCCGUCGUAGCCACCA DNA 1: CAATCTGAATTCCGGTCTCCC DNA 2: TGGTGGCTACGACGGGATT
Result: 0.0183 KA relative to UGCAUGU

Task: Repeat with GGCCACG (DNA:RNA) RNA: GGGAGACCGGAAUUCAGAUUGUCCGGCCACGUUAAAUCCCGUCGUAGCCACCA DNA 1: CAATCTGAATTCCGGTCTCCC DNA 2: TGGTGGCTACGACGGGATT
Result: 0.00911 KA relative to UGCAUGU

Task: Repeat with GGCACCG (DNA:RNA) RNA: GGGAGACCGGAAUUCAGAUUGUCCGGCACCGUUAAAUCCCGUCGUAGCCACCA DNA 1: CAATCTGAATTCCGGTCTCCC DNA 2: TGGTGGCTACGACGGGATT
Result: 0.0143 KA relative to UGCAUGU

Task: Repeat with UUGGUCC (DNA:RNA) RNA: GGGAGACCGGAAUUCAGAUUGUCCUUGGUCCUUAAAUCCCGUCGUAGCCACCA DNA 1: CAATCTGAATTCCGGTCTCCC DNA 2: TGGTGGCTACGACGGGATT
Result: 0.0262 KA relative to UGCAUGU

Task: Repeat with CUCCGUG (DNA:RNA) RNA: GGGAGACCGGAAUUCAGAUUGUCCCUCCGUGUUAAAUCCCGUCGUAGCCACCA DNA 1: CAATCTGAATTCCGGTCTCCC DNA 2: TGGTGGCTACGACGGGATT
Result: 0.0111 KA relative to UGCAUGU

Task: Repeat with UUGUCCG (DNA:RNA) RNA: GGGAGACCGGAAUUCAGAUUGUCCUUGUCCGUUAAAUCCCGUCGUAGCCACCA DNA 1: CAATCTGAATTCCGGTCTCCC DNA 2: TGGTGGCTACGACGGGATT
Result: 0.0163 KA relative to UGCAUGU

Task: Repeat with CGAUGUC (DNA:RNA) RNA: GGGAGACCGGAAUUCAGAUUGUCCCGAUGUCUUAAAUCCCGUCGUAGCCACCA DNA 1: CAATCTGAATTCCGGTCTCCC DNA 2: TGGTGGCTACGACGGGATT
Result: 0.0174 KA relative to UGCAUGU

Task: Repeat with UUGGUUG (DNA:RNA) RNA: GGGAGACCGGAAUUCAGAUUGUCCUUGGUUGUUAAAUCCCGUCGUAGCCACCA DNA 1: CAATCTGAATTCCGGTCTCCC DNA 2: TGGTGGCTACGACGGGATT
Result: 0.0398 KA relative to UGCAUGU
